- target: Recombinant human his-tagged IGF 1R extracellular domain protein (human) (UniProt P08069)
- assay: SPR, captured IgG, IGF-1R ECD-his analyte, dissociation pH 7.4
endpoint name: kon (M⁻¹ s⁻¹)
Output spec: scalar in M⁻¹ s⁻¹, unitless text.

Need kon, item VRDN-02567 (antibody, V domains shown) VH: EVQLVQSGGGLVKPGGSLRLSCAASGFTFSSFAMHWVRQAPGKGLEWISVIDTRGATYYADSVKGRFTISRDNAKNSLYLQMNSLRAEDTAVYYCARLGNFYYHHDVWGQGTTVTVSS VL: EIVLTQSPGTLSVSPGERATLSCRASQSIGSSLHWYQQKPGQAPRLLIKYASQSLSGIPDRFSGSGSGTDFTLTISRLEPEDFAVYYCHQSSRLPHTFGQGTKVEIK
171000

More entries:
kon lookup needed for VRDN-02540 (antibody, V domains shown) VH: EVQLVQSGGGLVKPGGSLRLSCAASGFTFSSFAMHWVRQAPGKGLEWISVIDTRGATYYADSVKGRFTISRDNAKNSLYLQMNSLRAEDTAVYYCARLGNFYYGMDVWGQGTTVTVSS VL: EIVLTQSPGTLSVSPGERATLSCRASQSIGSSLHWYQQKPGQAPRLLIKYHSQSLSGIPDRFSGSGSGTDFTLTISRLEPEDFAVYYCHQSSRLPHTFGQGTKVEIK , thanks.
97900

May I ask what kon has been recorded for VRDN-02532 (antibody, V domains shown) VH: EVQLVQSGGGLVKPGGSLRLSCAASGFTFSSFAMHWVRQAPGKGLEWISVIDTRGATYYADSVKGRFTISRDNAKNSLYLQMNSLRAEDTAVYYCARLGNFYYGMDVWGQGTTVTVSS VL: EIVLTQSPGTLSVSPGERATLSCRASQHIGSSLHWYQQKPGQAPRLLIKYASQSLSGIPDRFSGSGSGTDFTLTISRLEPEDFAVYYCHQSSRLPHTFGQGTKVEIK ?
129000

Fill in the blank: the reported kon of VRDN-02522 (antibody, V domains shown) VH: EVQLVQSGGGLVKPGGSLRLSCAASGFTFSSFAMHWVRQAPGKGLEWISVIDTRGATYYADSVKGRFTISRDNAKNSLYLQMNSLRAEDTAVYYCARLGNFHYGMDVWGQGTTVTVSS VL: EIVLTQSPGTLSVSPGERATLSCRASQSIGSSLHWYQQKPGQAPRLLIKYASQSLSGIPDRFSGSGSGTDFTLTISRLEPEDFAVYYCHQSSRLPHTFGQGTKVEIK is ____.
46700

Recorded kon for VRDN-02557 (antibody, V domains shown) VH: EVQLVQSGGGLVKPGGSLRLSCAASGFTFSSFAMHWVRQAPGKGLEWISVIDTRGATYYADSVKGRFTISRDNAKNSLYLQMNSLRAEDTAVYYCARLGNFYYGHDVWGQGTTVTVSS VL: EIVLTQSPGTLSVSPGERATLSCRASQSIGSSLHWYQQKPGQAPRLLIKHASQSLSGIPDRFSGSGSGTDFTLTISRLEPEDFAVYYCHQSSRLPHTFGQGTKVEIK , please?
146000

What value of kon has been recorded for this entry: VRDN-02523 (antibody, V domains shown) VH: EVQLVQSGGGLVKPGGSLRLSCAASGFTFSSFAMHWVRQAPGKGLEWISVIDTRGATYYADSVKGRFTISRDNAKNSLYLQMNSLRAEDTAVYYCARLGNFYHGMDVWGQGTTVTVSS VL: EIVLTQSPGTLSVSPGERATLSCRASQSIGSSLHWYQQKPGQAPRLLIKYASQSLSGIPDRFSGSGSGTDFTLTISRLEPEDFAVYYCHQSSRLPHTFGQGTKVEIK
38200

Form field: reported kon of VRDN-02512 (antibody, V domains shown) VH: EVQLVQSGGGLVKPGGSLRLSCAASGFTFSSFAMHWVRQAPGKGLEWISVIDTHGATYYADSVKGRFTISRDNAKNSLYLQMNSLRAEDTAVYYCARLGNFYYGMDVWGQGTTVTVSS VL: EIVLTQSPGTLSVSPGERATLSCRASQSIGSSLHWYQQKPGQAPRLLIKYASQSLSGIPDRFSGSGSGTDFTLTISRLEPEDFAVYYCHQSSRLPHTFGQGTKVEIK
44600

Reported kon, binder VRDN-02506 (antibody, V domains shown) VH: EVQLVQSGGGLVKPGGSLRLSCAASGFTFSHFAMHWVRQAPGKGLEWISVIDTRGATYYADSVKGRFTISRDNAKNSLYLQMNSLRAEDTAVYYCARLGNFYYGMDVWGQGTTVTVSS VL: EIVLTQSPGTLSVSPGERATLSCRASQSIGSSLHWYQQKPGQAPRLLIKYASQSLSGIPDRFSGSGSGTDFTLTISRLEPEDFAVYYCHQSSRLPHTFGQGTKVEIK : ____
69900

Suppose we examine the binder VRDN-02529 (antibody, V domains shown) VH: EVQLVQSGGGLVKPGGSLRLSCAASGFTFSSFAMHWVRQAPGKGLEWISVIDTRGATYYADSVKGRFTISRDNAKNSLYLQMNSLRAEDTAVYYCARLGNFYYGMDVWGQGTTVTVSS VL: EIVLTQSPGTLSVSPGERATLSCRHSQSIGSSLHWYQQKPGQAPRLLIKYASQSLSGIPDRFSGSGSGTDFTLTISRLEPEDFAVYYCHQSSRLPHTFGQGTKVEIK ; what kon value has been reported?
27100

Bench note: what kon did VRDN-02511 (antibody, V domains shown) VH: EVQLVQSGGGLVKPGGSLRLSCAASGFTFSSFAMHWVRQAPGKGLEWISVIDHRGATYYADSVKGRFTISRDNAKNSLYLQMNSLRAEDTAVYYCARLGNFYYGMDVWGQGTTVTVSS VL: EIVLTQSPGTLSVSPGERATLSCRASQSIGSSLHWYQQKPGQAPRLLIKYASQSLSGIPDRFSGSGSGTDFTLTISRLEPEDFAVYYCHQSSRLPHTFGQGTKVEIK show?
766000
